# Tested on: SW-620
# Procedure summary: NCI tumour cell line growth inhibition, 48 h
Active and inactive are the calls of the source. Cut-off read from the data, not from the text of the source: active = GI50 up to about 1.1 µM and inactive = higher. *1 amine or outer side, *2 acyl side, *3 side chain or, on linkers, in order; H or OH if unused. Where a SMILES comes first, the peptide text is derived from it. Bridges are numbered along the chain shown (N, C = ends). Roman numbers before positions name the chains, in order. [ ]: non-standard residue; d: D form. Actinocin(9to1) = Cc1c2oc3c(C)ccc(C(=O)[*:1])c3nc-2c(C(=O)[*:2])c(N)c1=O; NMeV = CN[CH](C(=O)O)C(C)C; Sar = CNCC(=O)O
Possible outcomes: TRUE for active, FALSE for inactive

Compound: COc1cc(O)c2c(c1)C(O)C(O)CC1OC1C(=O)/C=C/CC(C)OC2=O (configuration not stated)
Study target: SW-620
Label: TRUE
//
Compound: C[C@H](CC[C@@H](O)C(C)(C)O)[C@H]1CC[C@@]2(C)[C@@H]3CC=C4[C@@H](CC[C@H](OC5OC(CO)C(O)C(O)C5O)C4(C)C)[C@]3(C)C(=O)C[C@]12C (some centres not stated)
Study target: SW-620
Label: FALSE
//
Compound: O=C1c2cccc3cc4ccccc4c(c23)C(=O)N1CCCNCCNCCCN1C(=O)c2cccc3cc4ccccc4c(c23)C1=O
Study target: SW-620
Label: TRUE
//
Compound: Cn1cnc([N+](=O)[O-])c1Sc1nnc(C(F)(F)F)n1C
Study target: SW-620
Label: FALSE
//
Compound: COc1ccc(C(=O)/C=C/c2ccc(OCC(=O)N3CCN(c4ccccc4)CC3)cc2)cc1
Study target: SW-620
Label: FALSE
//
Compound: O=C1C2CCCCC2C(=O)N1n1c(Cc2ccc(Cl)cc2)n[nH]c1=O (configuration not stated)
Study target: SW-620
Label: FALSE
//
Compound: CC(C)(C)OC(=O)NCCC1SC2C=CC1C2 (configuration not stated)
Study target: SW-620
Label: FALSE
//
Compound: C/C(Nc1ccc(Cl)cc1Cl)=C1/CCOC1=O
Study target: SW-620
Label: FALSE
//
Compound: O=C(O)C(O)c1ccc(F)cc1 (configuration not stated)
Study target: SW-620
Label: FALSE
//
Compound: Cc1ccc(S(=O)(=O)N2c3ccccc3[C@H]3CCc4c([nH]c5ccccc45)[C@H]32)cc1
Study target: SW-620
Label: FALSE
//
Compound: CCCCCC(O)[C@H]1C(=O)C[C@@H](O[Si](C)(C)C(C)(C)C)[C@@H]1/C=C/CCOCc1ccccc1 (some centres not stated)
Study target: SW-620
Label: FALSE
//
Compound: CSc1nc(Cl)c2c(n1)Sc1nc3ccccc3n1N=C2
Study target: SW-620
Label: FALSE
//
Compound: COc1cc(CNc2nc3cc(C(F)(F)F)ccc3nc2C)cc(OC)c1OC
Study target: SW-620
Label: FALSE
//
Compound: C=CCNC(=S)NNC(=O)c1c(C)nc2sccn12
Study target: SW-620
Label: FALSE
//
Compound: c1ccc2c(c1)CCCC/C2=N/OCC1CO1 (configuration not stated)
Study target: SW-620
Label: FALSE
//
Compound: Cc1cccc(C(C)C)c1NC(=O)/C(Cc1c([N+](=O)[O-])cccc1[N+](=O)[O-])=N/NC(=O)CC#N
Study target: SW-620
Label: FALSE
//
Compound: COC(=O)c1ccccc1C1=C([N+](=O)[O-])C(c2cccc(Br)c2)C(C#N)=C(N)O1 (configuration not stated)
Study target: SW-620
Label: FALSE
//
Compound: Fc1ccc2c(c1)SC1=Nc3sc4cc(F)ccc4[n+]3CN12
Study target: SW-620
Label: FALSE
//
Compound: O=C1c2ccccc2C(=O)N1/N=C1/SC(=N\c2ccccc2)/C(=N/c2ccccc2)N1c1ccccc1
Study target: SW-620
Label: FALSE
//
Compound: Cc1c2oc3c(C)ccc(C(=O)NC4C(=O)NC(C(C)C)C(=O)N5CCCC5C(=O)N(C)CC(=O)N(C)C(C(C)C)C(=O)OC4C)c3nc-2c(C(=O)NC2C(=O)NC(C(C)C)C(=O)N3CCCC3C(=O)N(C)CC(=O)N(C)C(C(C)C)C(=O)OC2C)c(N)c1=O (configuration not stated) (I: TVP[Sar][NMeV] / II: TVP[Sar][NMeV]; ester I:1-I:C, II:1-II:C; linker I:N-II:N via Actinocin(9to1); configuration not given here)
Study target: SW-620
Label: TRUE
//
Compound: COc1cc(/C=C2\C(=O)N(c3cccc(NC(C)=O)c3)C(c3ccccc3)S2(=O)=O)cc(OC)c1OC (configuration not stated)
Study target: SW-620
Label: FALSE
//
Compound: Cc1csc(/N=C(/NCCN2CCOCC2)Nc2nc(C)cs2)n1
Study target: SW-620
Label: FALSE
//
Compound: CC1C(c2ccccc2)N(C)C(c2ccccc2)C(C)C1(O)c1ccccc1 (configuration not stated)
Study target: SW-620
Label: FALSE
//
Compound: CCCCCCCCCCCCCCCCNc1nc(=O)n(C2OC(C)C(O)C2O)cc1F (configuration not stated)
Study target: SW-620
Label: FALSE
//
Compound: CCCCCCCCCCCCCCCC(=O)Nc1ccn(C2OC(CO)C(O)C2O)c(=O)n1 (configuration not stated)
Study target: SW-620
Label: FALSE
//
Compound: C/C(CC(=O)Nc1ccc(C)cc1C)=N/N=C(N)N
Study target: SW-620
Label: FALSE
//
Compound: c1ccc2c(c1)CCc1cc3cc4c(nc3nc1-2)-c1ccccc1CC4
Study target: SW-620
Label: FALSE
//
Compound: COc1ccc(-c2c3c(nc4nc(SCCc5ccccc5)nc(N)c24)CCCC3)cc1OC
Study target: SW-620
Label: FALSE
//
Compound: C/C=C\C(CC(=O)NCCC1CN(S(=O)(=O)c2ccc(C)cc2)c2ccccc21)CC(=O)OC (configuration not stated)
Study target: SW-620
Label: FALSE
//
Compound: Cn1cc(NC(=O)[C@H]2CCC(N)=N2)cc1C(=O)NCCC(=N)N
Study target: SW-620
Label: FALSE
//
Compound: CCCNC(=O)N(C)C(=O)N1N=C(c2ccccc2)C1c1ccccc1 (configuration not stated)
Study target: SW-620
Label: FALSE
//
Compound: FC(F)(F)c1ccc(Cc2nc3cc4ccccc4cc3[nH]2)cc1
Study target: SW-620
Label: FALSE
